System: HepG2
Assay: Cytotoxicity against human HepG2 cells by MTT assay
Assay type: functional, cell-based

{"SUBSTANCE_SMILES": "COC1=C2C[C@@H](C)C[C@H](OC)[C@H](O)[C@@H](C)/C=C(\\C)[C@H](OC(N)=O)[C@@H](OC)/C=C\\C=C(/C)C(=O)NC(=C([C@H](OC)C(=O)C[C@@H](C)O)C1=O)C2=O", "SUBJECT_OF_TEST": "HepG2", "IC50 / µM": 14.6}
{"SUBSTANCE_SMILES": "COC1=C2C[C@@H](C)C[C@H](OC)[C@H](O)[C@@H](C)/C=C(\\C)[C@H](OC(N)=O)[C@@H](OC)/C=C\\C=C(/C)C(=O)NC(=CC1=O)C2=O", "SUBJECT_OF_TEST": "HepG2", "IC50 / µM": 0.3}
{"SUBSTANCE_SMILES": "COC1=C2C[C@@H](C)C[C@H](OC)[C@H](O)[C@@H](C)/C=C(\\C)[C@H](OC(N)=O)[C@@H](OC)CC/C=C(\\C)C(=O)NC(=C([C@H](OC)C(=O)C[C@@H](C)O)C1=O)C2=O", "SUBJECT_OF_TEST": "HepG2", "IC50 / µM": 22.4}
